- TARGET_UNDER_TEST: UniProt Q28156
- PROTOCOL_DETAILS: Inhibitory activity against phosphodiesterase was determined in vitro using bovine aorta, at 1 uM cGMP for cGMP-PDE.
Listed below: IC50 values for each entry.

Record excerpt, results attached:
CCCCOc1cc(C2CNC(=O)C2)ccc1OC (stereo not given) | > 1 mM
COc1ccc(C2CNC(=O)C2C)cc1OC (stereo not given) | > 1 mM
CCCCOc1cc(CC2CNC(=O)N2)ccc1OC (stereo not given) | 0.38 mM
COc1ccc(C2CNC(=O)C2)cc1OC (stereo not given) | > 1 mM
CCOC(=O)CCCOc1cc(C2CNC(=O)C2)ccc1OC (stereo not given) | > 1 mM

Inquiry: Give IC50 for COc1ccc(C2CNC(=O)C2)cc1OCc1ccccc1 (stereo not given)
Reply text: 0.174 mM

Inquiry: Quickly give me recorded IC50 for C=C(C)COc1cc(C2CNC(=O)C2)ccc1OC (stereo not given)
Reply text: > 1 mM

Inquiry: Give the measured IC50 for CCC(C)COc1cc(C2CNC(=O)C2)ccc1OC (stereo not given)
Reply text: 0.2 mM

Inquiry: Give the value of IC50 reported for the following: COc1ccc(C2CNC(=O)C2)cc1OCCCC(=O)O (stereo not given)
Reply text: > 1 mM

Inquiry: Look up and report measured IC50 for this entry: COc1ccc(C2CNC(=O)C2)cc1OCCCC(=O)N(C)C1CCCCC1 (stereo not given)
Reply text: > 1 mM

====

- TARGET_UNDER_TEST: cAMP phosphodiesterase (Bos taurus)
- PROTOCOL_DETAILS: Inhibitory activity against phosphodiesterase was determined in vitro using bovine aorta, at 1 uM cAMP for cAMP-PDE.
PROPERTY_NAME: IC50 (µM)

COc1cc2c(cc1OC)[C@H]1CC(=O)NC1C2 (some centres not stated) | 800
COc1ccc(C2CC(=O)N(C(C)=O)C2)cc1OC (configuration not stated) | 25

P: CCOC(=O)C1C(=O)NCC1c1ccc(OC)c(OC)c1 (configuration not stated)
Q: COc1cc2c(cc1OC)[C@@H]1CNC(=O)[C@@H]1CC2
R: CCCCOc1cc(C2CN=C(S)C2)ccc1OC (configuration not stated)
S: COc1cc2c(cc1OC)[C@@H]1CNC(=O)[C@H]1CC2
Inquiry: Given 4 compounds, produce a descending ranking by IC50. Please respond with the labels ordered as the question requires.
Reply text: R, Q, S, P

====

- TARGET_UNDER_TEST: cGMP-specific 3',5'-cyclic phosphodiesterase (Bos taurus, UniProt Q28156)
- PROTOCOL_DETAILS: Inhibition of cGMP-PDE phosphodiesterase from bovine aorta using 1 uM cGMP
PROPERTY_NAME: IC50 (µM)

P: CCCCOc1cc(C2CN=C(S)C2)ccc1OC (stereo not given)
Q: COc1cc2c(cc1OC)-c1c/c(=N\c3c(C)cc(C)cc3C)n(C)c(=O)n1CC2
Inquiry: When their IC50 values are compared, which is larger, P or Q ? Please respond with the label that marks your chosen entry.
Reply text: P

====

- TARGET_UNDER_TEST: cAMP phosphodiesterase (Bos taurus)
- PROTOCOL_DETAILS: Inhibitory activity against phosphodiesterase was determined in vitro using bovine aorta, at 1 uM cAMP for cAMP-PDE.
PROPERTY_NAME: IC50 (µM)

Reference set (3 entries):
COc1ccc(C2CNC(=O)C2)cc1OCCCC(=O)N(C)C1CCCCC1 (configuration not stated) | 34
CCCCOc1cc(C2CNC(=O)C2)ccc1OC (configuration not stated) | 13
COc1ccc(C2CNC(=O)C2C)cc1OC (configuration not stated) | 22

1: COc1ccc(C2CNC(=O)C2)cc1OCC(C)C (configuration not stated)
2: COc1ccc(C2CNC(=O)C2)cc1OCc1ccccc1 (configuration not stated)
3: CCOC(=O)CCCOc1cc(C2CNC(=O)C2)ccc1OC (configuration not stated)
Inquiry: // sort entries: IC50, high to low Enter labels, ranked according to the request.
Reply text: 2, 3, 1

====

- TARGET_UNDER_TEST: cGMP-specific 3',5'-cyclic phosphodiesterase (Bos taurus, UniProt Q28156)
- PROTOCOL_DETAILS: Inhibition of cGMP-PDE phosphodiesterase from bovine aorta using 1 uM cGMP
pIC50: −log10 of the molar value.
PROPERTY_NAME: pIC50

Inquiry: Report pIC50, nothing else, for this molecule: CCCCOc1cccc(C2CNC(=O)C2)c1 (stereo not drawn)
Reply text: < 3.00

Inquiry: Please give measured pIC50 of the following entry: COc1ccc(C2CC(=O)N(C(C)=O)C2)cc1OC (stereo not drawn)
Reply text: < 3.00

Inquiry: Item O=C1CC(c2ccccc2)CN1 (stereo not drawn) : provide pIC50
Reply text: < 3.00

====

Listed next: entries and their corresponding IC50.
- TARGET_UNDER_TEST: cAMP phosphodiesterase (Bos taurus)
- PROTOCOL_DETAILS: Inhibitory activity against phosphodiesterase was determined in vitro using bovine aorta, at 1 uM cAMP for cAMP-PDE.

Completed entries (count: 5):
COc1ccc(C2CNC(=O)C2)cc1O (stereo unspecified) | > 0.001 M
C=C(C)COc1cc(C2CNC(=O)C2)ccc1OC (stereo unspecified) | 24 µM
CCCCNC(=O)CCCOc1cc(C2CNC(=O)C2)ccc1OC (stereo unspecified) | 16 µM
COc1ccc(C2CNC(=O)C2)cc1OCCCC(=O)O (stereo unspecified) | 400 µM
CCCCOc1cccc(C2CNC(=O)C2)c1 (stereo unspecified) | > 0.001 M

With those in mind, consider the next compound.
Inquiry: Return reported IC50 for target or system cAMP phosphodiesterase (Bos taurus), item CCCCOc1ccc(C2CNC(=O)C2)cc1OC (stereo unspecified) .
Reply text: > 0.001 M

Sourced from ChEMBL document CHEMBL1124643
